meta.source: the RNAGym collection of RNA variant scans (doi:10.1073/pnas.2313332121)

B1: TPR 5TU (parent)
chain: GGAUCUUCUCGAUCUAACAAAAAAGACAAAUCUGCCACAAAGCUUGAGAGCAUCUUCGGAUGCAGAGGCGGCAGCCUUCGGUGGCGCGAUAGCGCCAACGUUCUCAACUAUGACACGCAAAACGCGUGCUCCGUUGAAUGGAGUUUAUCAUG

Variants of: B1
Test: polymerase ribozyme fitness, log enrichment relative to wild type (log ratio); higher = more active; in vitro selection for triplet polymerase activity
This sample holds only a part of the variants without activity.
endpoint.label: polymerase ribozyme fitness (log ratio)

get_value(item= A26C G42A G46C A49G A52C C54U A91U C99U U109G C132U G140U , readout=polymerase ribozyme fitness (log ratio)) returns ≤ -4.2
